Source listed as PubChem BioAssay (NCI).

Tested on: CAKI-1 renal
protocol.summary: NCI-60 one-dose screen, 48 h (100 = growth as untreated, 0 = no growth, -100 = all killed)
cond: 10 µM unless noted
This is part of a sample that, as a whole, favours compounds with a hit. Of some 83,000 tested, about 20% had one in any assay. The source made the active and inactive calls. Rule for the calls: active = growth percent below 10; inactive = the rest.
Listed compounds paired with reported growth

Example entries begin here.
Cc1oc2c(C)c3oc(=O)cc(C)c3cc2c1CCl    51.8% (inactive)
CCCOC(=O)c1nc(N(CC2CCCCC2)C(=O)NC)sc1/N=C/c1ccccc1    31.7% (inactive)
NC(=S)N/N=C\c1nccc2c(C(F)(F)F)cccc12    -2.51% (active)

growth for c1ccc(C2NCCNC2c2ccccc2)cc1 (stereo not given) ?
97.6% (inactive)

Please do the same for `O=C1C(=O)c2cc([N+](=O)[O-])ccc2-c2ccccc21` as well.
-68.6% (active)

* * *

Reported growth is given for each of the following compounds.
Tested on: BT-549 breast
protocol.summary: NCI-60 one-dose screen, 48 h (100 = growth as untreated, 0 = no growth, -100 = all killed)
cond: 10 µM unless noted
The panel holds about 83,000 compounds, 20% with a hit somewhere; the sample as a whole holds those more often.
Hi! Could you send only the number? It should be in %, unit omitted.

Below are worked cases with known answers.
Nc1ccc(-c2ccc(N)c(S(=O)(=O)O)c2)cc1S(=O)(=O)O    113
CC(C)c1ccc(C(=O)OC2CCCC2)cc1    97.5
O=C1C=CC(=O)c2c(O)c(CO)c(CO)c(O)c21    97
CCOC(=O)c1cc(CC)sc1NC(=O)CC(C)=O    27.3
CC1(C)N=c2cc3c(cc2N1c1ccc(Cl)cc1)=Nc1ccccc1N3c1ccc(Cl)cc1    44

Recorded growth for `CCCCCCCCCCCCN1C(C)=CS/C1=C\C=C\c1scc(C)[n+]1CCCCCCCCCCCC` , please?
23.7

* * *

Test system: NCI/ADR-RES ovarian
protocol.summary: NCI-60 one-dose screen, 48 h (100 = growth as untreated, 0 = no growth, -100 = all killed)
cond: 10 µM unless noted
The panel holds about 83,000 compounds, 20% with a hit somewhere; the sample as a whole holds those more often.
test.readout: growth (%)
// note: answer is a bare numeric in %

Record excerpt, results attached:
CN(C)c1ccc(/C=C/c2sc3ccc4ccccc4c3[n+]2C)cc1    34
COc1cc(/C=C/C(=O)CC(=O)/C=C/c2ccc(O)c(OC)c2)ccc1O    37.2
CC(O)C(O)C(O)C(O)C(O)C(=O)NNc1ccccc1 (stereo not drawn)    84.2

Need growth, item CN(C)CCSC1=Nc2ccc(Cl)cc2C(c2ccccc2Cl)N(C)C1 (stereo not drawn)
66

# repeat for `C/C=C/c1cc2c(c(=O)o1)C(=O)[C@@H](O)[C@H](C)O2`
86

What would you report for `CN(C)c1ccc(/C=C/c2nccc3ccccc23)cc1` ?
78.4

And the next one, CN1CCC(CN2c3ccccc3Sc3ccccc32)C1 (stereo not drawn) ?
85.8

And `c1ccc(-c2cccc(-c3ccccn3)n2)nc1` ?
1.8

* * *

System: CAKI-1 renal
protocol.summary: NCI-60 one-dose screen, 48 h (100 = growth as untreated, 0 = no growth, -100 = all killed)
cond: 10 µM unless noted
Experimental: Growth inhibition of the CAKI-1 human tumor cell line is measured as a screen for anti-cancer activity. Cells are grown in 96 well plates and exposed to the test compound for 48 hours. Compounds are tested at a single concentration, which is 10^-5 M for most compounds. The reported endpoint is percent growth (GI% or GIPRCNT), where numbers from 0 - 100% represent growth inhibition, and numbers from -100% - 0 represent cell death. For example, a value of 40 represents 60% growth inhibition. […]
The panel holds about 83,000 compounds, 20% with a hit somewhere; the sample as a whole holds those more often.
test.readout: growth (%)
Write the answer as a number in %, unit excluded.

The cases that follow already have their growth on record.
NNc1ccc(Cl)cc1Cl    58.8
O=[N+]([O-])c1ccc(Oc2ccccc2Cl)c([N+](=O)[O-])c1    82.7
O=C(O)c1cc2c(s1)C(=O)c1sccc1C2=O    107
CC(C)(C)c1ccc(O)c(-c2ccccc2)c1    86.7
CN(C)CCSC1=Nc2ccc(Cl)cc2C(c2ccccc2Cl)N(C)C1 (stereo unspecified)    20.5

GET /values?readout=growth&item= `CCCN(CCC)C(=O)c1ccc(C)cc1`
99.2

Again, but for `COC(=O)[C@]1(C)CCC[C@]2(C)c3ccc(C(C)C)cc3C(=O)[C@@H](Br)[C@@H]12`
89
